Assay Explanation: chemical genetic growth profiling, strain panel (AID 1159580);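 further: tested at 20 µM; growth read once vehicle control cultures reached saturation at 30 °C; 1 = growth at the plate median or of vehicle wells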
Run Parameters: S. cerevisiae deletion strains, growth OD, locus YPL106C, strain sse1, active compounds read low
In all, about 5,500 compounds went through this assay and about 2,000 (36%) were called active. Not shown: some 18% with an inconclusive outcome. Some of the results follow.
Checkbox rule: normalized growth lower than 1 = class 1; normalized growth not lower than 1 = class 0.

Item Smiles | Label Class
O=C(O)CCCc1ccccc1 | class 1

Please examine the following record next.
Check if normalized growth falls below 1 for Cc1[nH]c2ccccc2c1CN(C)C .
class 0

----------
Assay Explanation: chemical genetic growth profiling, strain panel (AID 1159580);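 further: tested at 20 µM; growth read once vehicle control cultures reached saturation at 30 °C; 1 = growth at the plate median or of vehicle wells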
Run Parameters: S. cerevisiae deletion strains, growth OD, locus YJL115W, strain asf1, active compounds read low
In all, about 5,500 compounds went through this assay and about 2,000 (36%) were called active. Not shown: some 18% with an inconclusive outcome. Some of the results follow.
Measured Endpoint: normalized growth
One number for each entry.

Below: 2 compounds and their reported normalized growth.
Compound | normalized growth
CCCc1cc(C(N)=S)ccn1 | 0.948
CCCCC/C=C/CCC(=O)N[C@H]1[C@H](Oc2c3cc4cc2Oc2ccc(cc2Cl)[C@@H](O[C@@H]2O[C@H](CO)[C@@H](O)[C@H](O)[C@H]2NC(C)=O)[C@@H]2NC(=O)[C@H](NC(=O)[C@@H]4NC(=O)[C@H]4NC(=O)C(Cc5ccc(c(Cl)c5)O3)NC(=O)[C@H](N)c3ccc(O)c(c3)Oc3cc(O)cc4c3)c3ccc(O)c(c3)-c3c(OC4O[C@H](CO)[C@@H](O)[C@H](O)[C@@H]4O)cc(O)cc3[C@@H](C(=O)O)NC2=O)O[C@H](CO)[C@@H](O)[C@@H]1O (stereo partly drawn) | 0.996

I am curious: what normalized growth value has been reported for O=C(c1ccc(OCCN2CCCCC2)cc1)c1c(-c2ccc(O)cc2)sc2cc(O)ccc12 ?
1.03

----------
Assay Explanation: chemical genetic growth profiling, strain panel (AID 1159580);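 further: tested at 20 µM; growth read once vehicle control cultures reached saturation at 30 °C; 1 = growth at the plate median or of vehicle wells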
Run Parameters: S. cerevisiae deletion strains, growth OD, locus YNL161W, strain CBK1, active compounds read low
The whole screen tested about 5,500 compounds, of which about 2,000 (36%) were called active. About 18% were inconclusive and are not listed. The list shows a part of the results.
Exercise: for every item that follows, state its recorded normalized growth.
One number for each entry.

Use these answered entries as a reference point.
Compound | normalized growth
Cc1ccc(S(=O)(=O)NC(=O)Nc2ccc(Sc3ccccc3)nc2Sc2ccccc2)cc1 | 0.973
O=C(NCc1ccc(Cl)c(Cl)c1)c1cccnc1OCC(F)(F)F | 0.971
O=C(Nc1cccc(C(F)(F)F)c1)c1cncc(C#Cc2ccccc2)c1 | 0.985
CC(C)(C)c1ccc(C(=N)SC(C(=O)C(F)(F)F)c2ccccc2)cc1 (stereo unspecified) | 0.993
CCOC(=O)C1C(c2c(F)cccc2Cl)C(C(=O)OCC)C(O)(C(F)(F)F)NC1(O)C(F)(F)F (stereo unspecified) | 0.991

Next item in the queue.
Can you share its normalized growth? I mean this compound: CCOC(=O)c1ccc2nc(N=CNO)sc2c1
0.951

----------
Assay Explanation: chemical genetic growth profiling, strain panel (AID 1159580);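 further: tested at 20 µM; growth read once vehicle control cultures reached saturation at 30 °C; 1 = growth at the plate median or of vehicle wells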
Run Parameters: S. cerevisiae deletion strains, growth OD, locus YML070W, strain DAK1, active compounds read low
Among all 5,500 compounds or so, about 2,000 (36%) were called active. Not shown: some 18% with an inconclusive outcome. Some of the results follow.
Measured Endpoint: normalized growth
Give bare numbers.

Item Smiles | normalized growth
Cc1ccc(S(=O)(=O)NC(=O)Nc2ccc(Sc3ccccc3)nc2Sc2ccccc2)cc1 | 0.972
CCCN(CCC)C(=S)NC(=O)c1cccc([N+](=O)[O-])c1 | 0.942
O=C(ON=C1CCCCC1)c1ccc([N+](=O)[O-])cc1 | 0.819
CC1(C)CC(=O)C=C(Sc2nc3ccccc3o2)C1 | 0.927

Please report normalized growth for every entry that follows.
1. Cc1nn(C)c(C(=O)Sc2ccc(OC(F)(F)F)cc2)c1[N+](=O)[O-]
2. Cc1c(C(=O)Sc2ccc(F)cc2F)sc2nc(C(F)(F)F)nn12
3. Cc1cccc(NC(=S)N/N=C\c2ccc(F)cc2)c1

1: 0.959; 2: 0.103; 3: 0.88

Where these numbers come from: PubChem BioAssay AID1159580
